Experimental Protocol: Half life in Sprague-Dawley rat at 0.5 mg/kg, po
Assay type: ADME, organism-based
Experimental Conditions: in vivo
Test Readout: half-life (h)
Number only, in h; omit the unit.

I have this compound here, COc1cc2c(cc1OC)C(=O)C(CC1(F)CCN(Cc3ccccc3F)CC1)C2 (stereo unspecified) , and I need its recorded half-life. 4.17

---

Experimental Protocol: Tmax in Sprague-Dawley rat brain at 10 mg/kg, po
Format: ADME, organism-based
Test Readout: Tmax (min)
Number only, in min; omit the unit.

I have this compound here, COc1cc2c(cc1OC)C(=O)C(CC1(F)CCN(Cc3ccccc3F)CC1)C2 (stereo unspecified) , and I need its recorded Tmax. 30
